Give measured AC50 for each item. Keep answers brief.
# System: Plasmodium falciparum Dd2 asexual blood stage parasites
# EXPERIMENT_DESCRIPTION: microbe, parasite or virus in culture
# Design: species or system Plasmodium falciparum Dd2 in human erythrocytes; single determination (one 11-point concentration-response curve)
# CONDITION_DETAILS: Plasmodium falciparum, DD2, Erythrocyte, 72 h; read-out: AC50
Your reply should be a number followed by the unit it is expressed in.

Q: Using the record for CN(C)CCNC(=O)c1nc2nc(-c3ccccc3)c(-c3cccc(F)c3)cc2n1C [NCGC00417874-01] , report its AC50.
A: 19.3 µM

Q: Request: O=C(c1cnn2c(C(F)F)cc(-c3ccccc3)nc12)N1CCCCC1c1cccnc1 (centres unmarked) [MLS000728797-01]
A: 8.41 µM

Q: Next entry: Cc1ccc(-c2nn3c(=O)c4c([nH]c3c2C)CCCC4)cc1 [MLS000029798-01]
A: 2.99 µM

Q: What do you get for CC(C)CNC(=O)CN1CN(c2ccccc2)C2(CCN(C(=O)NC3CCCCC3)CC2)C1=O [NCGC00473208-01] ?
A: 15 µM

Q: For CCOc1ccc(NC(=O)c2nnn3cc(C)[nH]c(=O)c23)cc1 [NCGC00454245-01] then?
A: 10.6 µM

Q: Moving on to CC(Oc1ccc(F)cc1)C(=O)Nc1cc(Cl)ccc1-n1cncn1 (centres unmarked) [MLS001157608-01]
A: 6.68 µM

Q: Moving on to the next molecule: O=C(c1ccccc1)N1CCC(Cc2nnc(-c3ccncc3)[nH]2)CC1 [NCGC00458326-01]
A: 15 µM

Q: Please answer likewise for Oc1ccc(-c2nnc(S)n2-c2ccc3c(c2)OCCO3)c(O)c1 [MLS000332001-01]
A: 2.66 µM
